system: control sera (pooled serum of ten healthy LUMC hospital workers; commercial negative donor pooled serum from the Dutch bloodbank); format: binding, human; parameters: unit not given here
Property: Binding of Control serum LUMC to looped peptides of the protein M of SARS-CoV Urbani; scope: individual sequences
The answer should be a number; do not append a unit.

// query Recorded Binding of Control serum LUMC to looped peptides of the protein M of SARS-CoV Urbani for ILLNVPLRGTIVTRP , please?
// result 0.5

// query Recorded Binding of Control serum LUMC to looped peptides of the protein M of SARS-CoV Urbani for TRPLMESELVIGAVI , please?
// result 1.0

// query Recorded Binding of Control serum LUMC to looped peptides of the protein M of SARS-CoV Urbani for NRYRIGNYKLNTDHA , please?
// result 0.7

// query Recorded Binding of Control serum LUMC to looped peptides of the protein M of SARS-CoV Urbani for LYIIKLVFLWLLWPV , please?
// result 0.6

// query Recorded Binding of Control serum LUMC to looped peptides of the protein M of SARS-CoV Urbani for TLACFVLAAVYRINW , please?
// result 0.7

###

system: antibodies in sera from SARS patients (sera 1a, 1b, 2, 6, 37, 62, London, SARS-yellow, SARS-green); assay type: binding, human; set-up: unit not given here
ENDPOINT_LABEL: Binding of serum 37 to linear peptides of protein X2
The answer should be a number; do not append a unit.

Example sequences with recorded Binding of serum 37 to linear peptides of protein X2:
{"SEQUENCE_CODE": "LLIQQWIQFMMSRRR", "MEASUREMENT": 0.6}
{"SEQUENCE_CODE": "HITMTTVYHITVSQI", "MEASUREMENT": 0.6}
{"SEQUENCE_CODE": "LYMAISPKFTTSLSL", "MEASUREMENT": 0.6}
{"SEQUENCE_CODE": "MTTVYHITVSQIQLS", "MEASUREMENT": 0.6}
{"SEQUENCE_CODE": "VSQIQLSLLKVTAFQ", "MEASUREMENT": 0.6}

// query Recorded Binding of serum 37 to linear peptides of protein X2 for VVILRIGTQVLKTMS , please?
// result 0.6

// query Recorded Binding of serum 37 to linear peptides of protein X2 for LHSSSLTSLLKTHRM , please?
// result 0.5

// query Recorded Binding of serum 37 to linear peptides of protein X2 for TMTTVYHITVSQIQL , please?
// result 0.7

// query Recorded Binding of serum 37 to linear peptides of protein X2 for MLHSSSLTSLLKTHR , please?
// result 0.5

// query Recorded Binding of serum 37 to linear peptides of protein X2 for SLHKLLQTLVLKMLH , please?
// result 0.4

// query Recorded Binding of serum 37 to linear peptides of protein X2 for LVVILRIGTQVLKTM , please?
// result 0.6

// query Recorded Binding of serum 37 to linear peptides of protein X2 for TQSTALQELLIQQWI , please?
// result 0.6

###

Property: Binding of serum SARS-green to linear peptides of protein X1 of SARS-CoV Urbani; scope: individual sequences
system: antibodies in sera from SARS patients (sera 1a, 1b, 2, 6, 37, 62, London, SARS-yellow, SARS-green); assay type: binding, human
The answer should be a number; do not append a unit.

Example sequences with recorded Binding of serum SARS-green to linear peptides of protein X1 of SARS-CoV Urbani:
{"SEQUENCE_CODE": "QITTDTGIENATFFI", "MEASUREMENT": 0.3}
{"SEQUENCE_CODE": "YVVVHGYFTEVYYQL", "MEASUREMENT": 0.1}
{"SEQUENCE_CODE": "HLLLVAAGMEAQFLY", "MEASUREMENT": 0.2}
{"SEQUENCE_CODE": "KSKNPLLYDANYFVC", "MEASUREMENT": 0.2}
{"SEQUENCE_CODE": "IENATFFIFNKLVKD", "MEASUREMENT": 0.2}

// query Recorded Binding of serum SARS-green to linear peptides of protein X1 of SARS-CoV Urbani for PLQASLPFGWLVIGV , please?
// result 0.4

// query Recorded Binding of serum SARS-green to linear peptides of protein X1 of SARS-CoV Urbani for WQLALYKGFQFICNL , please?
// result 0.3

// query Recorded Binding of serum SARS-green to linear peptides of protein X1 of SARS-CoV Urbani for YQLESTQITTDTGIE , please?
// result 0.4

// query Recorded Binding of serum SARS-green to linear peptides of protein X1 of SARS-CoV Urbani for IPYNSVTDTIVVTEG , please?
// result 0.3

// query Recorded Binding of serum SARS-green to linear peptides of protein X1 of SARS-CoV Urbani for TDTGIENATFFIFNK , please?
// result 0.5

// query Recorded Binding of serum SARS-green to linear peptides of protein X1 of SARS-CoV Urbani for PPNVQIHTIDGSSGV , please?
// result 0.3

// query Recorded Binding of serum SARS-green to linear peptides of protein X1 of SARS-CoV Urbani for VKDYVVVHGYFTEVY , please?
// result 0.2

// query Recorded Binding of serum SARS-green to linear peptides of protein X1 of SARS-CoV Urbani for GIENATFFIFNKLVK , please?
// result 0.2

###

system: rabbit serum obtained by immunizing a rabbit with the SARS-CoV strain Frankfurt 1; format: binding; set-up: unit not given here
Property: Binding of a rabbit serum to linear peptides; scope: individual sequences
The answer should be a number; do not append a unit.

Example sequences with recorded Binding of a rabbit serum to linear peptides:
{"SEQUENCE_CODE": "PLQASLPFGWLVIGV", "ASSAY_SYSTEM": "rabbit serum obtained by immunizing a rabbit with the SARS-CoV strain Frankfurt 1", "MEASUREMENT": 0.1}
{"SEQUENCE_CODE": "AGMEAQFLYLYALIY", "ASSAY_SYSTEM": "rabbit serum obtained by immunizing a rabbit with the SARS-CoV strain Frankfurt 1", "MEASUREMENT": 0.1}
{"SEQUENCE_CODE": "HITMTTVYHITVSQI", "ASSAY_SYSTEM": "rabbit serum obtained by immunizing a rabbit with the SARS-CoV strain Frankfurt 1", "MEASUREMENT": 0.7}
{"SEQUENCE_CODE": "LQTLVLKMLHSSSLT", "ASSAY_SYSTEM": "rabbit serum obtained by immunizing a rabbit with the SARS-CoV strain Frankfurt 1", "MEASUREMENT": 0.3}
{"SEQUENCE_CODE": "LVVILRIGTQVLKTM", "ASSAY_SYSTEM": "rabbit serum obtained by immunizing a rabbit with the SARS-CoV strain Frankfurt 1", "MEASUREMENT": 0.4}

// query Recorded Binding of a rabbit serum to linear peptides for GIENATFFIFNKLVK , please?
// result 0.1

// query Recorded Binding of a rabbit serum to linear peptides for LLFVTIYSHLLLVAA , please?
// result 0.1

// query Recorded Binding of a rabbit serum to linear peptides for WKCKSKNPLLYDANY , please?
// result 0.1

###

Property: Binding of serum 1b to linear peptides of protein X2; scope: individual sequences
test system: antibodies in sera from SARS patients (sera 1a, 1b, 2, 6, 37, 62, London, SARS-yellow, SARS-green); format: binding, human
The answer should be a number; do not append a unit.

{"SEQUENCE_CODE": "THITMTTVYHITVSQ", "MEASUREMENT": 0.5}
{"SEQUENCE_CODE": "TMSLYMAISPKFTTS", "MEASUREMENT": 0.0}
{"SEQUENCE_CODE": "MTTVYHITVSQIQLS", "MEASUREMENT": 0.6}
{"SEQUENCE_CODE": "ELLIQQWIQFMMSRR", "MEASUREMENT": 0.5}
{"SEQUENCE_CODE": "YMAISPKFTTSLSLH", "MEASUREMENT": 0.6}

// query Recorded Binding of serum 1b to linear peptides of protein X2 for LHSSSLTSLLKTHRM , please?
// result 0.5

// query Recorded Binding of serum 1b to linear peptides of protein X2 for LQTLVLKMLHSSSLT , please?
// result 0.5

// query Recorded Binding of serum 1b to linear peptides of protein X2 for YTQSTALQELLIQQW , please?
// result 0.5

// query Recorded Binding of serum 1b to linear peptides of protein X2 for LSLLKVTAFQHQNSK , please?
// result 0.1

// query Recorded Binding of serum 1b to linear peptides of protein X2 for TTVYHITVSQIQLSL , please?
// result 0.5

###

system: control sera (pooled serum of ten healthy LUMC hospital workers; commercial negative donor pooled serum from the Dutch bloodbank); type: binding, human; parameters: unit not given here
ENDPOINT_LABEL: Binding of Control Serum Blood-Bank to Looped peptides
The answer should be a number; do not append a unit.

{"SEQUENCE_CODE": "VATEGALNTPKDHIG", "MEASUREMENT": 0.5}
{"SEQUENCE_CODE": "MSDNGPQSNQRSAPR", "MEASUREMENT": 0.6}
{"SEQUENCE_CODE": "NPNNNAATVLQLPQG", "MEASUREMENT": 0.8}
{"SEQUENCE_CODE": "VTQAFGRRGPEQTQG", "MEASUREMENT": 0.6}
{"SEQUENCE_CODE": "EGHQTAAFRDVLVVL", "MEASUREMENT": 0.9}

// query Recorded Binding of Control Serum Blood-Bank to Looped peptides for YFYYLGTGPEASLPY , please?
// result 0.7

// query Recorded Binding of Control Serum Blood-Bank to Looped peptides for PKLFIRQEEVQQELY , please?
// result 0.6

// query Recorded Binding of Control Serum Blood-Bank to Looped peptides for ITAQPVKIDNASPAS , please?
// result 0.5
